- Test system: HepG2-A16-CD81EGFP cells
- METHOD_NOTES: cells
- APPLIED_CONDITIONS: Homo sapiens, HepG2, read-out: HepG2 Tox% @ 50 uM rep2
QUANTITY: cytotoxicity at 50 µM (%)
Please reply with the bare figure in % and do not write the unit itself.

Param item: CC(C)OCc1cc(CN2CCN(c3cccc(Cl)c3)CC2)c(O)c2ncccc12 [MMV000788] ; param system: HepG2-A16-CD81EGFP cells; output cytotoxicity at 50 µM: 100

cytotoxicity at 50 µM of O=C(Nc1cccc(C(F)(F)F)c1)c1cc(Cl)ccc1O [MMV665807] , assay on HepG2-A16-CD81EGFP cells, is 99

COc1ccc(C(C)=O)cc1N1C(=O)C2C(C1=O)C1(c3ccccc3)C(=O)C2(c2ccccc2)C(c2ccc(C)cc2)=C1c1ccc(C)cc1 (stereo not shown) [MMV007695] on HepG2-A16-CD81EGFP cells gives cytotoxicity at 50 µM = 13

# cytotoxicity at 50 µM measured on HepG2-A16-CD81EGFP cells for item CC(C)(C)c1ccc(C(=O)Nc2nc3ccccc3s2)cc1 [MMV142383] = 96

---

- System: Plasmodium berghei (Pb-Luc) exoerythrocytic-stage parasites
- METHOD_NOTES: microbe, parasite or virus in culture
- APPLIED_CONDITIONS: read-out: PbLuc IC50, dose response, 1/3 dilutions, max conc. 10 or 50 uM, unit inferred
QUANTITY: pIC50
pIC50 is defined as minus the log10 of a concentration measured in mol/L.

For this compound ( `N#Cc1nc(Cc2cccc3ccccc23)oc1N1CCN(C(c2ccccc2)c2ccccc2)CC1` ), measured pIC50 is 5.57

Noted for `CC1=C(CC(=O)c2cccc([N+](=O)[O-])c2)C(=O)c2ccccc2C1=O` : its pIC50 reads 5.37

Given item `COc1ccc(Nc2nc(NN=Cc3ccc(O)cc3)nc(Nc3ccc([N+](=O)[O-])cc3)n2)cc1` , the value recorded as its pIC50 is 4.80

---

- System: HepG2-A16-CD81EGFP cells
- METHOD_NOTES: cells
- APPLIED_CONDITIONS: Homo sapiens, HepG2, read-out: HepG2 Tox% @ 50 uM rep1
QUANTITY: cytotoxicity at 50 µM (%)
Give the quantity in %, number only.

# cytotoxicity at 50 µM of COc1ccc(C2NCCc3c2[nH]c2ccccc32)cc1CN1CCN(c2ccc(F)cc2)CC1 (stereo not drawn) [MMV019690] = 101

cytotoxicity at 50 µM recorded for this compound, COc1cccc(NC(=O)[C@H](C(C)C)n2c(=O)[nH]c3ccccc3c2=O)c1 [MMV665878] , is 12

cytotoxicity at 50 µM in this record for CCN1CCN(c2c(C(=O)c3ccccc3)cnc3cc(OC)c(OC)cc23)CC1 [MMV008474] : 7

Consider CN(C)c1ccc(C(O)(c2ccc(N(C)C)cc2)c2ccc(N(C)C)cc2)cc1 [MMV665941] . Its measured cytotoxicity at 50 µM is 95

Per the records, this compound ( O=c1nc(C=Cc2ccc(Br)cc2)oc2ccccc12 [MMV666599] ) has cytotoxicity at 50 µM equal to 70

Per the records, this compound ( CCN(CC)CCNc1ncnc2c1[nH]c1ccc(Br)cc12 [MMV006545] ) has cytotoxicity at 50 µM equal to 99

The reported cytotoxicity at 50 µM of the compound CC1CC2=C(CC1CNCCCN(C)C)C(C)(C)CCC2 (stereo not drawn) [MMV665830] was 98

Reported cytotoxicity at 50 µM for CCOc1ccc(Nc2ccnc3cc(Cl)ccc23)cc1 [MMV007285] was 16

What the record says about Cc1ccc(N2C(=O)C3C(C2=O)C2(c4ccccc4)C(=O)C3(c3ccccc3)C(c3ccccc3)=C2c2ccccc2)cc1 (stereo not drawn) [MMV666062] : cytotoxicity at 50 µM is 1.06

According to the records, this compound CC(C)c1ccc(CNCC(O)c2ccccc2)cc1 (stereo not drawn) [MMV001049] displays cytotoxicity at 50 µM of 96

Entry O=C(Nc1ccc(F)c(Cl)c1)Nc1ccc(Cl)c(Cl)c1 [MMV665953] ; cytotoxicity at 50 µM = 97

Item: CC(C)=CCN1CCC(C(=O)Nc2ccc(-c3nc4ccccc4[nH]3)cc2)CC1 [MMV665946] | cytotoxicity at 50 µM: 98

Kindly note the recorded cytotoxicity at 50 µM for CC(C)CCNCC(O)Cn1c2ccccc2c2ccccc21 (stereo not drawn) [MMV006787] , which is 98

// sample COc1cccc(Cn2c(Oc3ccccc3)nc3c2c(=O)n(C)c(=O)n3C)c1 [MMV396705] , its cytotoxicity at 50 µM was 47

cytotoxicity at 50 µM recorded for this compound, COc1ccc(C(C)=O)cc1N1C(=O)C2C(C1=O)C1(c3ccccc3)C(=O)C2(c2ccccc2)C(c2ccc(C)cc2)=C1c1ccc(C)cc1 (stereo not drawn) [MMV007695] , is -1.58

Record COc1cc2c(cc1OC)C1=NNC(=O)C1=NC(C)(C)C2 [MMV084940] . Reported cytotoxicity at 50 µM: 99

Item: O=C(NNc1cc(N2CCCC2)nc(N2CCCC2)n1)c1ccccc1 [MMV396770] | cytotoxicity at 50 µM: 29

The measured cytotoxicity at 50 µM associated with COc1cccc(C(=O)NC(c2ccc(C)cc2)c2cc(Cl)c3cccnc3c2O)c1 (stereo not drawn) [MMV665969] reads 92

meta.source: paper PMC4890880
